# reported binding affinity ratio (IC50 of standard peptide / IC50 of test peptide); entries follow
target: HLA-A*1101 (human); assay: competition with 125I-labelled standard peptide on purified HLA, gel filtration; details: remark: other sources report otherwise
quantity: binding affinity ratio (IC50 of standard peptide / IC50 of test peptide)

binder: TAELLAACFAR (modifications not checked) [HBV POL 716 11-mer peptide … (SEQ ID NO: 661)]
result: 0.0023
//
binder: TLWKAGILYKR (modifications not checked) [HBV POL 150 11-mer peptide … (SEQ ID NO: 666)]
result: 0.0095
//
binder: SAICSVVR (modifications not checked) [HBV POL 520 8-mer peptide SAICSVVR (SEQ ID NO: 652)]
result: 0.0071
//
binder: SAGPCALR (modifications not checked) [HBV X 65 8-mer peptide SAGPCALR (SEQ ID NO: 651)]
result: 0.002
